Taken from patent US7652047B2.

Collected pIC50 values appear next to each entry.
- Experimental system: MEK1^CA (human GST-MEK1, constitutively active, Ser218Asp and Ser222Asp) (Homo sapiens, UniProt Q02750, S218D/S222D)
- Construct: GST; made in house; host or cells: Escherichia coli
- Sequence (Q02750 whole entry S218D/S222D): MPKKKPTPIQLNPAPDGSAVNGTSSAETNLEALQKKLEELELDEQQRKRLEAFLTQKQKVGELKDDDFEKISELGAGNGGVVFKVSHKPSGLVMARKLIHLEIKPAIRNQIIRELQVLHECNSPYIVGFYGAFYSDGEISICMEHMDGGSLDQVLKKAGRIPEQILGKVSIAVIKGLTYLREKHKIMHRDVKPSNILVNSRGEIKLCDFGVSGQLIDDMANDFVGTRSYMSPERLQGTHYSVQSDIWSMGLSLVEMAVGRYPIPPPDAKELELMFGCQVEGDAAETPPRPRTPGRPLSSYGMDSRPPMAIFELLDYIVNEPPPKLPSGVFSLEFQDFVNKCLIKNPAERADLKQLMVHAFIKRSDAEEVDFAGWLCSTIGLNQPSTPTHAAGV
- Method: MEK1 enzymatic activity assay (MEK1^CA / ERK2 / MBP, [γ-33P]ATP incorporation)
- Assay type: biochemical
- Condition notes: Table 1, compounds of formula I; read-out: Avg IC50
pIC50: −log10 of the molar value.

The examples below pair each entry with its known result.
Oc1nsc(Nc2ccc(Oc3ccccc3)cc2)c1-c1noc(-c2ccccc2)n1    < 6.30
Cc1cc(Nc2snc(O)c2C(=N)NC(C)C)ccc1Oc1ccc(C(F)(F)F)cc1    < 6.30
N=C(NO)c1c(O)nsc1Nc1ccc(Oc2ccccc2)cc1    7.00 to 9.00
Cc1ccc(Nc2sncc2C(=N)NC2CCCC2)cc1    < 6.30
Cc1cc(Nc2snc(O)c2C(=N)NCC2CCCCC2)c2ccccc2n1    < 6.30
N=C(NCCCCCCO)c1c(O)nsc1Nc1ccc(Oc2ccccc2)cc1    7.00 to 9.00
CC(C)NC(=N)c1c(O)nsc1Nc1ccc(Oc2cc(C(F)(F)F)cc(C(F)(F)F)c2)cc1    7.00 to 9.00
Cc1ccc(Nc2snc(O)c2/C(N)=N/O)cc1    < 6.30

// lookup pIC50 for N=C(NCC1CCCCC1)c1c(O)nsc1Nc1ccc2c(c1)Cc1ccccc1-2
< 6.30

Next compound: Cc1cc(Nc2snc(O)c2C(=N)NC(C)CO)ccc1Oc1ccccc1 (centres unmarked)
6.30 to 7.00

Next compound: CC(C)NC(=N)c1c(O)nsc1Nc1ccc(Oc2ccccc2Cl)cc1
6.30 to 7.00

Next compound: CC[C@H](CO)NC(=N)c1c(O)nsc1Nc1ccc(Oc2cc(F)cc(F)c2)cc1C
7.00 to 9.00

Next compound: CC(CO)NC(=N)c1c(O)nsc1Nc1ccccc1Oc1ccccc1 (centres unmarked)
< 6.30

Next compound: CC(CO)NC(=N)c1c(O)nsc1Nc1ccc(Oc2ccc(F)cc2)cc1 (centres unmarked)
< 6.30

Next compound: CC(CO)NC(=N)c1c(O)nsc1Nc1ccc(Oc2ccccc2Cl)cc1 (centres unmarked)
< 6.30

Next compound: N=C(NCCCCO)c1c(O)nsc1Nc1ccc(Oc2ccc(Cl)cc2)cc1
6.30 to 7.00

Next compound: C[C@@H](CO)NC(=N)c1c(O)nsc1Nc1ccc(Oc2ccccc2)cc1
7.00 to 9.00

Next compound: N=C(NCC1CCCO1)c1c(O)nsc1Nc1ccc(Oc2cc(F)cc(F)c2)cc1 (centres unmarked)
7.00 to 9.00

Next compound: CC(C)(C)C(CO)NC(=N)c1c(O)nsc1Nc1ccc(Oc2ccccc2)cc1 (centres unmarked)
6.30 to 7.00

Next compound: CC(C)NC(=N)c1c(O)nsc1Nc1ccc(Oc2ccc(O)cc2)cc1
6.30 to 7.00

Next compound: CC(CO)NC(=N)c1c(O)nsc1Nc1ccc(OCc2ccccc2)cc1 (centres unmarked)
< 6.30

Next compound: N=C(NCC(O)CO)c1c(O)nsc1Nc1ccc(-c2nc3ccccc3[nH]2)cc1 (centres unmarked)
< 6.30

Next compound: CC(C)NC(=N)c1c(O)nsc1Nc1ccc(Oc2ccccc2)c(Cl)c1
7.00 to 9.00

Next compound: CC(C)NC(=N)c1c(O)nsc1Nc1ccc(Oc2cccc(F)c2)c(F)c1
< 6.30

Next compound: N=C(N[C@H](CO)CC1CCCCC1)c1c(O)nsc1Nc1ccc(Oc2ccccc2)cc1
< 6.30

Next compound: N=C(NC1(CO)CCCC1)c1c(O)nsc1Nc1ccc(Oc2ccccc2)cc1
6.30 to 7.00

Next compound: N=C(NCC1CCCCC1)c1c(O)nsc1Nc1ccc(Oc2ccc(F)cc2)cc1
7.00 to 9.00

---

- Experimental system: MEK1^CA (human GST-MEK1, constitutively active, Ser218Asp and Ser222Asp) (Homo sapiens, UniProt Q02750, S218D/S222D)
- Construct: GST; made in house; host or cells: Escherichia coli
- Method: MEK1 enzymatic activity assay (MEK1^CA / ERK2 / MBP, [γ-33P]ATP incorporation)
- Format: biochemical
- Condition notes: Table 1, compounds of formula I; read-out: Avg IC50
Collected IC50 values appear next to each entry.

N=C(NCCN1CCNCC1)c1c(O)nsc1Nc1ccc(Oc2cc(F)cc(F)c2)cc1 [compound 412]    1 to 100 nM

// lookup IC50 for CC(C)NC(=N)c1c(O)nsc1Nc1ccc(-n2cccn2)cc1 [compound 314]
> 500 nM

---

Collected IC50 values appear next to each entry.
- Experimental system: MEK1^CA (human GST-MEK1, constitutively active, Ser218Asp and Ser222Asp) (Homo sapiens, UniProt Q02750, S218D/S222D)
- Construct: GST; made in house; host or cells: Escherichia coli
- Method: MEK1 enzymatic activity assay (MEK1^CA / ERK2 / MBP, [γ-33P]ATP incorporation)
- Format: biochemical
- Condition notes: Table 1, compounds of formula I; read-out: Avg IC50
- Excerpt: Materials and preparation of reagents: Human GST-MEK1 and the constitutively active allele GST-MEK1^CA (harboring the mutations Ser218Asp and Ser222Asp) were subcloned into the […] expression vector pGEM4Z (Promega, Madison, Wis.) from the wild type human MEK1 cDNA. GST-MEK1^CA was expressed in Escherichia coli and partially purified using Glutathione Sepharose 4B affinity resin (Amersham Pharmacia Biotech, Piscataway, N.J.). […]

The examples below pair each entry with its known result.
CC(C)NC(=N)c1c(O)nsc1Nc1ccc(Oc2cc(F)cc(F)c2Cl)c(F)c1 [compound 328]    0.001 to 0.1 µM
N=C(NCc1cccc2ccccc12)c1c(O)nsc1Nc1cc(C(F)(F)F)cc(C(F)(F)F)c1 [compound 68]    > 0.5 µM
COc1ccc(Nc2snc(O)c2C(=N)NCc2ccc(C(F)(F)F)nc2)c(OC)n1 [compound 184]    > 0.5 µM

// lookup IC50 for N=C(NCc1ccccn1)c1c(O)nsc1Nc1ccc(Oc2cc(F)cc(F)c2)cc1 [compound 415]
0.001 to 0.1 µM

Next molecule: N=C(NCC(O)CO)c1c(O)nsc1Nc1ccc(Br)cc1 (centres unmarked) [compound 55]
0.1 to 0.5 µM

Next molecule: N=C(NCC1CCCCC1)c1c(O)nsc1Nc1ccc([N+](=O)[O-])cc1O [compound 89]
> 0.5 µM

Next molecule: CC(C)NC(=N)c1c(O)nsc1Nc1ccc(Oc2cccc3ccccc23)cc1 [compound 340]
0.001 to 0.1 µM

Next molecule: CC(C)NC(=N)c1c(O)nsc1Nc1ccc(Oc2cc(F)ccc2Cl)cc1 [compound 308]
0.1 to 0.5 µM

---

- Experimental system: MEK1^CA (human GST-MEK1, constitutively active, Ser218Asp and Ser222Asp) (Homo sapiens, UniProt Q02750, S218D/S222D)
- Construct: GST; made in house; host or cells: Escherichia coli
- Method: MEK1 enzymatic activity assay (MEK1^CA / ERK2 / MBP, [γ-33P]ATP incorporation)
- Assay type: biochemical
- Condition notes: Table 1, compounds of formula I; read-out: Avg IC50
Value kind: IC50

The examples below pair each entry with its known result.
N=C(NCCC1=CCCCC1)c1c(O)nsc1Nc1ccc(Oc2ccccc2)cc1 [Cpd 13]    1 to 100 nM
COc1ccc(Nc2snc(O)c2C(=N)NCC2CCCCC2)cn1 [compound 77]    1 to 100 nM
CC(CO)NC(=N)c1c(O)nsc1Nc1ccc(Oc2ccc(F)cc2)c(F)c1 (centres unmarked) [compound 393]    1 to 100 nM
N=C(NCC1CCCO1)c1c(O)nsc1Nc1ccc(Oc2ccccc2)cc1 (centres unmarked) [Cpd 25]    1 to 100 nM

// lookup IC50 for CC(C)NC(=N)c1c(O)nsc1Nc1ccc(Oc2ccc(C(F)(F)F)cc2)cc1 [compound 391]
100 to 500 nM

---

Collected IC50 values appear next to each entry.
- Experimental system: MEK1^CA (human GST-MEK1, constitutively active, Ser218Asp and Ser222Asp) (Homo sapiens, UniProt Q02750, S218D/S222D)
- Construct: GST; made in house; host or cells: Escherichia coli
- Method: MEK1 enzymatic activity assay (MEK1^CA / ERK2 / MBP, [γ-33P]ATP incorporation)
- Assay type: biochemical
- Condition notes: Table 1, compounds of formula I; read-out: Avg IC50

CC(C)NC(=N)c1c(O)nsc1Nc1ccc(Oc2cccc(F)c2F)cc1 [compound 326]    1 to 100 nM
CCCCCCCCCCOCC(O)CNC(=N)c1c(O)nsc1Nc1ccc(Oc2ccccc2)cc1 (centres unmarked) [compound 187]    > 500 nM
N=C(NCC1CCCCC1)c1c(O)nsc1Nc1cccc(Oc2ccccc2)c1 [compound 83]    100 to 500 nM
Cc1cc(Oc2cccc(F)c2F)ccc1Nc1snc(O)c1C(=N)NC(CO)C(C)C (centres unmarked) [compound 503]    100 to 500 nM
CC(CO)NC(=N)c1c(O)nsc1Nc1ccc(Oc2ccc(C(F)(F)F)cc2)c(Cl)c1 (centres unmarked) [compound 396]    100 to 500 nM
Cc1cccc(Oc2ccc(Nc3snc(O)c3C(=N)NC(C)C)cc2)c1 [compound 291]    1 to 100 nM

// lookup IC50 for N=C(NCC(O)O)c1c(O)nsc1Nc1ccc(Oc2ccc(F)cc2)c(Br)c1 [compound 208]
> 500 nM

Next compound: N=C(NCCO)c1c(O)nsc1Nc1ccc(Oc2ccc(Cl)cc2)cc1 [compound 192]
100 to 500 nM
